Values from the supplement of paper PMC12645437

log2 fold change of degron read counts: recorded values
- EXPERIMENTAL TARGET: T1, CRBN, Q96SW2;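 note: pooled lentiviral library of zinc finger degron-EGFP fusions in mCherry-positive Jurkat cells, FACS-sorted after compound exposure, with degron abundance counted by next-generation sequencing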
- T1 chain: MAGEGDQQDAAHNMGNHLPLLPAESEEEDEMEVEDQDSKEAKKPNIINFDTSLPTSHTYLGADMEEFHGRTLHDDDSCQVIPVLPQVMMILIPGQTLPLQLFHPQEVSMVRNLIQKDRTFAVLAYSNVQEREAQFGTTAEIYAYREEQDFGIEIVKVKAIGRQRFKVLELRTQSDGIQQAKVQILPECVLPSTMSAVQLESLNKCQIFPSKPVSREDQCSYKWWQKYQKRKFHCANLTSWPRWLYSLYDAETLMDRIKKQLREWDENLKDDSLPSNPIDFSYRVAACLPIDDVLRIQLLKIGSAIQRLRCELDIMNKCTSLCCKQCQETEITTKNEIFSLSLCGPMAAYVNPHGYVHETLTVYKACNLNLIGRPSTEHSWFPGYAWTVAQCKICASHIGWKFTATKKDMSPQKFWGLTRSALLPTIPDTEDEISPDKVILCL
- METHOD SUMMARY: log2 fold change of degron read counts, EGFP-low vs EGFP+ sorted cells (limma voom), compound-induced degradation; higher = more compound-induced degradation of the degron-EGFP fusion; degrons are variants of IKZF1/3 zinc finger 2; compound dose not given here
- CONDITION CONTEXT: Jurkat; 18 h; compound: compound 22 (5-morpholino-thalidomide)
Whole data set: some 8,300 sequences, median “log2 fold change of degron read counts, EGFP-low vs EGFP+ sorted cells (limma voom), compound-induced degradation” near -1.1, cut for the highest 2% near 3.2. Shown is part of a subset that was picked to be rich in the highest values.
Just the number, please, no unit attached.

Requested field: log2 fold change of degron read counts. Item: LVCEICGFSCTQKGNLLRHIKL [46L_47V_49E_50I_52G_53F_54S_55C_67L_, Q9UKT9]
3.11

So what does the record say about log2 fold change of degron read counts for LWCEICGFSCTQKGNLLRHIKL [46L_47W_49E_50I_52G_53F_54S_55C_67L_, Q9UKT9] ?
3.79

# lookup: log2 fold change of degron read counts of LRCEICGFSCTQKGNLLRHIKL [46L_47R_49E_50I_52G_53F_54S_55C_67L_, Q9UKT9]
1.56

So what's the measured log2 fold change of degron read counts for this one? LQCEICGFSCTQKGNLLRHIKL [46L_47Q_49E_50I_52G_53F_54S_55C_67L_, Q9UKT9]
1.96
